- Test system: MEG-01 (Chronic Myelogenous Leukemia)
- run description: Bliss excess, mean over the matrix (fraction); higher = more synergy;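 further: after 72 h of two-drug dosing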
Consider the following molecules; for each one, report its Bliss excess.
When you answer, write just the number.

Using the record for NC1(C(=O)N[C@@H](CCO)c2ccc(Cl)cc2)CCN(c2ncnc3[nH]ccc23)CC1 [Capivasertib] + CCN(CCO)CCCOc1ccc2c(Nc3cc(CC(=O)Nc4cccc(F)c4)[nH]n3)ncnc2c1 [AZD2811] (first compound max 10 µM, 7x7, partner max 1 µM) , report its Bliss excess. -0.0484

Item under review: CS(=O)(=O)CCNCc1ccc(-c2ccc3ncnc(Nc4ccc(OCc5cccc(F)c5)c(Cl)c4)c3c2)o1 [Lapatinib] + NC1(c2ccc(-c3nc4ccn5c(=O)[nH]nc5c4cc3-c3ccccc3)cc2)CCC1 [MK-2206] (first compound max 10 µM, 7x7, partner max 10 µM) . Reported Bliss excess? 0.0128

Bench note: what Bliss excess did Cn1cnc2c(F)c(Nc3ccc(Br)cc3Cl)c(C(=O)NOCCO)cc21 [Selumetinib] + C=CCn1c(=O)c2cnc(Nc3ccc(N4CCN(C)CC4)cc3)nc2n1-c1cccc(C(C)(C)O)n1 [AZD1775] (first compound max 10 µM, partner max 1 µM) show? 0.0437

Value lookup for Bliss excess; key = NC1(C(=O)N[C@@H](CCO)c2ccc(Cl)cc2)CCN(c2ncnc3[nH]ccc23)CC1 [Capivasertib] + CC(=O)c1c(C)c2cnc(Nc3ccc(N4CCNCC4)cn3)nc2n(C2CCCC2)c1=O [Palbociclib] (first compound max 10 µM, 7x7, partner max 10 µM) -0.0355

What does the data say about its Bliss excess? Entry: Cc1c2c(nn1C)CSCc1cc(n(C)n1)CSc1cc(c3ccccc3c1)OCCCc1c(C(=O)O)n(C)c3c-2c(Cl)ccc13 [AZD5991] + CC(=O)O[C@H]1C(=O)[C@@]2(C)[C@H]([C@H](OC(=O)c3ccccc3)[C@]3(O)C[C@H](OC(=O)[C@H](O)[C@@H](NC(=O)c4ccccc4)c4ccccc4)C(C)=C1C3(C)C)[C@]1(OC(C)=O)CO[C@@H]1C[C@@H]2O [Paclitaxel] (first compound max 1 µM, 7x7, partner max 3 µM) 0.12

Consider the molecule shown here: Cc1c2c(nn1C)CSCc1cc(n(C)n1)CSc1cc(c3ccccc3c1)OCCCc1c(C(=O)O)n(C)c3c-2c(Cl)ccc13 [AZD5991] + C1CN(CCC1(C(=O)N[C@@H](CCO)C2=CC=C(C=C2)Cl)N)C3=NC=NC4=C3C=CN4 [Capivasertib] (first compound max 1 µM, 7x7, partner max 3 µM) What is its recorded Bliss excess? -0.0122

# lookup: Bliss excess of Cc1c2c(nn1C)CSCc1cc(n(C)n1)CSc1cc(c3ccccc3c1)OCCCc1c(C(=O)O)n(C)c3c-2c(Cl)ccc13 [AZD5991] + CS(=O)(=O)CCNCc1ccc(-c2ccc3ncnc(Nc4ccc(OCc5cccc(F)c5)c(Cl)c4)c3c2)o1 [Lapatinib] (first compound max 1 µM, 7x7, partner max 10 µM) -0.0318

---

What Bliss excess was measured for each of the following?
- Test system: Saos-2 (Osteosarcoma)
- run description: Bliss excess, mean over the matrix (fraction); higher = more synergy
Respond using a number only.

For CC(=O)c1c(C)c2cnc(Nc3ccc(N4CCNCC4)cn3)nc2n(C2CCCC2)c1=O [Palbociclib] + Cn1cnc2c(F)c(Nc3ccc(Br)cc3Cl)c(C(=O)NOCCO)cc21 [Selumetinib] (first compound max 10 µM, 7x7, partner max 10 µM) , what is its reported Bliss excess? -0.0402

Need Bliss excess of Cn1cnc2c(F)c(Nc3ccc(Br)cc3Cl)c(C(=O)NOCCO)cc21 [Selumetinib] + C=CCn1c(=O)c2cnc(Nc3ccc(N4CCN(C)CC4)cc3)nc2n1-c1cccc(C(C)(C)O)n1 [AZD1775] (first compound max 10 µM, partner max 1 µM) , thanks. -0.0072

Entry under review: NC1(C(=O)N[C@@H](CCO)c2ccc(Cl)cc2)CCN(c2ncnc3[nH]ccc23)CC1 [Capivasertib] + C[C@@H]1COCCN1C2=NC(=NC(=C2)C3(CC3)[S@](=N)(=O)C)C4=C5C=CNC5=NC=C4 [AZD6738] (first compound max 10 µM, 7x7, partner max 10 µM) . Reported Bliss excess? -0.0717

Given the compound CN(CCO)CC[C@H](CSc1ccccc1)Nc1ccc(S(=O)(=O)NC(=O)c2ccc(N3CCC([C@@H](O)c4ccccc4-c4ccc(Cl)cc4)CC3)cc2)cc1S(=O)(=O)C(F)(F)F [AZD4320] + Nc1ccn([C@@H]2O[C@H](CO)[C@@H](O)C2(F)F)c(=O)n1 [Gemcitabine] (first compound max 1 µM, 7x7, partner max 0.3 µM) , what is its reported Bliss excess? 0.121

So what's the measured Bliss excess for this one? Cc1c2c(nn1C)CSCc1cc(n(C)n1)CSc1cc(c3ccccc3c1)OCCCc1c(C(=O)O)n(C)c3c-2c(Cl)ccc13 [AZD5991] + C[C@@H](Nc1cc(F)cc(F)c1)c1cc(C(=O)N(C)C)cc2c(=O)cc(N3CCOCC3)oc12 [AZD8186] (first compound max 1 µM, 7x7, partner max 3 µM) -0.0271

Quick one: Bliss excess for COc1cccc(OCCCN)c1-c1cc(Nc2cnc(C#N)cn2)n[nH]1 [Prexasertib] + CN(C)CCCOc1ccc(-c2ccc3ncc4c(c3c2)n(C2CCOCC2)c(=O)n4C)cn1 [AZD0156] (first compound max 1 µM, 7x7, partner max 1 µM) ? -0.0869

GET /values?readout=Bliss excess&item= CN(C)CCCOc1ccc(-c2ccc3ncc4c(c3c2)n(C2CCOCC2)c(=O)n4C)cn1 [AZD0156] + CCN(CCO)CCCOc1ccc2c(Nc3cc(CC(=O)Nc4cccc(F)c4)[nH]n3)ncnc2c1 [AZD2811] (first compound max 1 µM, 7x7, partner max 1 µM) 0.0088

# input compound: CN(CCO)CC[C@H](CSc1ccccc1)Nc1ccc(S(=O)(=O)NC(=O)c2ccc(N3CCC([C@@H](O)c4ccccc4-c4ccc(Cl)cc4)CC3)cc2)cc1S(=O)(=O)C(F)(F)F [AZD4320] + CCN(CCO)CCCOc1ccc2c(Nc3cc(CC(=O)Nc4cccc(F)c4)[nH]n3)ncnc2c1 [AZD2811] (first compound max 1 µM, 7x7, partner max 1 µM) ; wanted: its Bliss excess 0.0831

Could you tell me which Bliss excess is on file for CS(=O)(=O)CCNCc1ccc(-c2ccc3ncnc(Nc4ccc(OCc5cccc(F)c5)c(Cl)c4)c3c2)o1 [Lapatinib] + C[C@@H](Oc1cc(-c2cnn(C3CCNCC3)c2)cnc1N)c1c(Cl)ccc(F)c1Cl [Crizotinib] (first compound max 10 µM, 7x7, partner max 10 µM) ? -0.0452

Dear colleague, I am looking for the recorded Bliss excess of the following compound: N#Cc1cnc(Nc2cc(NC[C@H]3CNCCO3)c(C(F)(F)F)cn2)cn1 [SRA737] + C=CCn1c(=O)c2cnc(Nc3ccc(N4CCN(C)CC4)cc3)nc2n1-c1cccc(C(C)(C)O)n1 [AZD1775] (first compound max 10 µM, partner max 1 µM) 0.0939

Requested field: Bliss excess. Item: CN(CCO)CC[C@H](CSc1ccccc1)Nc1ccc(S(=O)(=O)NC(=O)c2ccc(N3CCC([C@@H](O)c4ccccc4-c4ccc(Cl)cc4)CC3)cc2)cc1S(=O)(=O)C(F)(F)F [AZD4320] + CN(C)CCCOc1ccc(-c2ccc3ncc4c(c3c2)n(C2CCOCC2)c(=O)n4C)cn1 [AZD0156] (first compound max 1 µM, 7x7, partner max 1 µM) -0.0323

Tell me the measured Bliss excess of CCc1c2c(nc3ccc(O)cc13)-c1cc3c(c(=O)n1C2)COC(=O)[C@]3(O)CC [SN-38] + CN(C)CCCOc1ccc(-c2ccc3ncc4c(c3c2)n(C2CCOCC2)c(=O)n4C)cn1 [AZD0156] (first compound max 0.3 µM, 7x7, partner max 1 µM) , please. -0.0279

// returns reported Bliss excess for input CC(=O)c1c(C)c2cnc(Nc3ccc(N4CCNCC4)cn3)nc2n(C2CCCC2)c1=O [Palbociclib] + CC1(C)CCC(CN2CCN(c3ccc(C(=O)NS(=O)(=O)c4ccc(NCC5CCOCC5)c([N+](=O)[O-])c4)c(Oc4cnc5[nH]ccc5c4)c3)CC2)=C(c2ccc(Cl)cc2)C1 [Venetoclax] (first compound max 10 µM, 7x7, partner max 1 µM) -0.0417

The origin of these recorded values is the supplement of paper PMC11061612.
